System name: T1, mouse serum albumin (MSA), full length (mouse, UniProt P07724 25-608)
T1 construct: mature; Immobilized on CM5 chip (SPR) or coated on plates (ELISA); also called mouse albumin; murine serum albumin
Protocol details: SPR kinetics, immobilized albumin, 1:1 fit, 37 C
Known Kd of a selection of binders
Reply with just the number (in nM).

Task: // fetch Kd given entry ADX_7016_E02 (L38T) (designed binder, Full His6-tagged entry; also called 6727_E08) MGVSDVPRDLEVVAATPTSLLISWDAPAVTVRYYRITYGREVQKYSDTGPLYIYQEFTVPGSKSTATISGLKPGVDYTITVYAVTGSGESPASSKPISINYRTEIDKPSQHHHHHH
Output: 502
